Molecular target: Epidermal growth factor receptor (Homo sapiens, UniProt P00533, L858R/T790M)
Sequence (P00533 25-1210 T790M/L858R limits assumed): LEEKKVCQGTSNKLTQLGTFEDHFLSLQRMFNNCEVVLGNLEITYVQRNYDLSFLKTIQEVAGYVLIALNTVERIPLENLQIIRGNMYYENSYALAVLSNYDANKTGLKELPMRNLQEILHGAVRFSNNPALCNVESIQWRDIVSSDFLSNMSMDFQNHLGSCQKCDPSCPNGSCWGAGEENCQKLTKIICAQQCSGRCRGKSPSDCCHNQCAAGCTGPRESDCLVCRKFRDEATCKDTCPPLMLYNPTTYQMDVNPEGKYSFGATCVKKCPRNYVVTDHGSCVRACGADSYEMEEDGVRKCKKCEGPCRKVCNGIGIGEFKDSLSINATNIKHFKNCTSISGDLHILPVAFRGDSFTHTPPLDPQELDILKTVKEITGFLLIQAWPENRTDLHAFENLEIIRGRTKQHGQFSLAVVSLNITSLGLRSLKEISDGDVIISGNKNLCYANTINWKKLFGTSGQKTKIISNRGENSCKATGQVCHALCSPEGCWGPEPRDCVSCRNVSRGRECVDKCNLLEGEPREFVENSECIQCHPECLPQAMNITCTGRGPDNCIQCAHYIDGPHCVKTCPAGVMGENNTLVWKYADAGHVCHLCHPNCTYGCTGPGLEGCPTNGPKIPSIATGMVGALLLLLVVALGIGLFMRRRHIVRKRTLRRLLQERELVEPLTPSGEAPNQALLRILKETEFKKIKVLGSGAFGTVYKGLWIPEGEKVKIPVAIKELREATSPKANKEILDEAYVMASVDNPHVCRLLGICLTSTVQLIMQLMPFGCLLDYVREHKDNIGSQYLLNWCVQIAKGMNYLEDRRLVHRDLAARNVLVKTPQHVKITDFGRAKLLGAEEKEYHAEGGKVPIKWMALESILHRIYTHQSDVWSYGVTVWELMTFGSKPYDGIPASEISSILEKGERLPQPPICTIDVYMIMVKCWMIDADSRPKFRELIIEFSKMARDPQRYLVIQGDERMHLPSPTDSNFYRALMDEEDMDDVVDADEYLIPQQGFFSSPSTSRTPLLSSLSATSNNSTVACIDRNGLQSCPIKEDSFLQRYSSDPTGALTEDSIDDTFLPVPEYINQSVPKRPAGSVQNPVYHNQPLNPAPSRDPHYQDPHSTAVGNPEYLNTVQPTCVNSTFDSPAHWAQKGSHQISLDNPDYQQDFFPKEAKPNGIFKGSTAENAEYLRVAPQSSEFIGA
Assay: biochemical
pIC50: −log10 of the molar value.
propertyName: pIC50

compound="CN1CCN(c2ccc(-c3ccc4cnn(C(C(=O)Nc5nccs5)c5ccccc5)c(=O)c4c3)cc2)CC1 (stereo not given)" number=7.99
compound="CN1CCC(c2ccc(-c3ccc4c(=O)n(C(C(=O)Nc5nccs5)c5ccccc5)cnc4c3)cc2)CC1 (stereo not given)" number=8.24
compound="CN1CCC(c2ccc(-c3cnc4ncn(C(C(=O)Nc5nccs5)c5ccccc5)c(=O)c4c3)cc2)CC1 (stereo not given)" number=8.72
compound="CN1CCC(c2ccc(-c3ccc4c(=O)n(C(C(=O)Nc5nccs5)c5ccccc5)ncc4c3)cc2)CC1 (stereo not given)" number=8.01
compound="CN1CCC(c2ccc(-c3ccc4c(c3)C(=O)N(C(C(=O)Nc3nccs3)c3cccc(F)c3)CC4)cc2)CC1 (stereo not given)" number=8.49
compound="CN1CCN(c2ccc(-c3ccc4c(c3)C(=O)N(C(C(=O)Nc3nccs3)c3cccc(F)c3)CC4)cc2)CC1 (stereo not given)" number=8.17
compound="CN1CCC(c2ccc(-c3ccc4c(=O)n(C(C(=O)Nc5nccs5)c5ccccc5)ccc4c3)cc2)CC1 (stereo not given)" number=8.92
compound="CN1CCC(c2ccc(-c3ccc4ccn(C(C(=O)Nc5nccs5)c5ccccc5)c(=O)c4c3)cc2)CC1 (stereo not given)" number=8.74
compound="CN1CCC(c2ccc(-c3ccc4c(c3)CCN(C(C(=O)Nc3nccs3)c3cccc(F)c3)C4=O)cc2)CC1 (stereo not given)" number=8.66
compound="CN1CCN(c2ccc(-c3ccc4c(=O)n(C(C(=O)Nc5nccs5)c5ccccc5)cnc4c3)cc2)CC1 (stereo not given)" number=8.51

* * *

Biological target: Epidermal growth factor receptor (Homo sapiens, UniProt P00533, L858R/T790M)
Assay: biochemical
propertyName: IC50 (nM)

compound="CN1CCN(c2ccc(-c3ccc4c(c3)C(=O)N(C(C(=O)Nc3nccs3)c3cccc(F)c3)C4)cc2)CC1 (stereo not drawn)" subjectoftest="Epidermal growth factor receptor (Homo sapiens, UniProt P00533, L858R/T790M)" propertyname=IC50 unitofmeasurement=nM number=1.8
compound="CN1CCC(c2ccc(-c3ccc4c(c3)C(=O)N(C(C(=O)Nc3nccs3)c3cc(F)ccc3O)C4)cc2)CC1 (stereo not drawn)" subjectoftest="Epidermal growth factor receptor (Homo sapiens, UniProt P00533, L858R/T790M)" propertyname=IC50 unitofmeasurement=nM number=0.1
compound="CN1CCN(c2ccc(-c3ccc4ncn(C(C(=O)Nc5nccs5)c5ccccc5)c(=O)c4c3)cc2)CC1 (stereo not drawn)" subjectoftest="Epidermal growth factor receptor (Homo sapiens, UniProt P00533, L858R/T790M)" propertyname=IC50 unitofmeasurement=nM number=0.9
compound="CN1CCC(c2ccc(-c3ccc4c(c3)C(=O)N(C(C(=O)Nc3nccs3)c3cccc(F)c3)C4)cc2)CC1 (stereo not drawn)" subjectoftest="Epidermal growth factor receptor (Homo sapiens, UniProt P00533, L858R/T790M)" propertyname=IC50 unitofmeasurement=nM number=0.2
compound="CN1CCN(c2ccc(-c3ccc4c(=O)n(C(C(=O)Nc5nccs5)c5ccccc5)ccc4c3)cc2)CC1 (stereo not drawn)" subjectoftest="Epidermal growth factor receptor (Homo sapiens, UniProt P00533, L858R/T790M)" propertyname=IC50 unitofmeasurement=nM number=3.4
compound="CN1CCN(c2ccc(-c3ccc4c(c3)C(=O)N(C(C(=O)Nc3nccs3)c3ccccc3)C4)cc2)CC1 (stereo not drawn)" subjectoftest="Epidermal growth factor receptor (Homo sapiens, UniProt P00533, L858R/T790M)" propertyname=IC50 unitofmeasurement=nM number=0.9
compound="CN1CCC(c2ccc(-c3cc4c(=O)n(C(C(=O)Nc5nccs5)c5ccccc5)cnc4cc3F)cc2)CC1 (stereo not drawn)" subjectoftest="Epidermal growth factor receptor (Homo sapiens, UniProt P00533, L858R/T790M)" propertyname=IC50 unitofmeasurement=nM number=1.4
compound="CN1CCN(c2ccc(-c3ccc4c(c3)C(=O)N(C(C(=O)Nc3nccs3)c3cc(F)ccc3O)C4)cc2)CC1 (stereo not drawn)" subjectoftest="Epidermal growth factor receptor (Homo sapiens, UniProt P00533, L858R/T790M)" propertyname=IC50 unitofmeasurement=nM number=0.3

* * *

# Vd values compiled below
Assay: Volume of distribution at steady state in mouse at 3 mg/kg, iv or 20 mg/kg, po
Assay type: ADME, organism-based
Settings: in vivo, read-out: Vdss
propertyName: Vd

molecule="CN1CCC(c2ccc(-c3ccc4c(c3)C(=O)N(C(C(=O)Nc3nccs3)c3cc(F)ccc3O)C4)cc2)CC1 (centres undefined)" propertyname=Vd result="2.5 L/kg"
molecule="CN1CCC(c2ccc(-c3ccc4c(c3)C(=O)N(C(C(=O)Nc3nccs3)c3cccc(F)c3)C4)cc2)CC1 (centres undefined)" propertyname=Vd result="2.4 L/kg"
molecule="O=C(Nc1nccs1)C(c1cc(F)ccc1O)N1Cc2ccc(-c3ccc(N4CCNCC4)cc3)cc2C1=O (centres undefined)" propertyname=Vd result="0.6 L/kg"
molecule="CN1CCN(c2ccc(-c3ccc4c(c3)C(=O)N(C(C(=O)Nc3nccs3)c3cc(F)ccc3O)C4)cc2)CC1 (centres undefined)" propertyname=Vd result="1.8 L/kg"

* * *

Test: Half life in mouse at 3 mg/kg, iv
Type: ADME, organism-based
Conditions: in vivo
propertyName: half-life

compound="CN1CCC(c2ccc(-c3ccc4c(c3)C(=O)N(C(C(=O)Nc3nccs3)c3cc(F)ccc3O)C4)cc2)CC1 (centres undefined)" result="2.3 h"
compound="O=C(Nc1nccs1)C(c1cc(F)ccc1O)N1Cc2ccc(-c3ccc(N4CCNCC4)cc3)cc2C1=O (centres undefined)" result="3 h"
compound="CN1CCC(c2ccc(-c3ccc4c(c3)C(=O)N(C(C(=O)Nc3nccs3)c3cccc(F)c3)C4)cc2)CC1 (centres undefined)" result="3.1 h"
compound="CN1CCN(c2ccc(-c3ccc4c(c3)C(=O)N(C(C(=O)Nc3nccs3)c3cc(F)ccc3O)C4)cc2)CC1 (centres undefined)" result="2.8 h"

* * *

Assay: Clearance in rat at 1 mg/kg, iv
Assay type: ADME, organism-based
Settings: in vivo
propertyName: clearance (mL/min/kg)

molecule="CN1CCC(c2ccc(-c3ccc4ncn(C(C(=O)Nc5nccs5)c5ccccc5)c(=O)c4c3F)cc2)CC1 (stereo unspecified)" propertyname=clearance unitofmeasurement=mL/min/kg number=30

* * *

# AUC(0-t) values compiled below
Assay: AUC (0 to 8 hrs) in mouse at 3 mg/kg, iv or 20 mg/kg, po
Type: ADME, organism-based
Set-up: dose 3 mg/kg, route iv
Settings: in vivo
propertyName: AUC(0-t)

compound="CN1CCC(c2ccc(-c3ccc4c(c3)C(=O)N(C(C(=O)Nc3nccs3)c3cc(F)ccc3O)C4)cc2)CC1 (centres undefined)" result="2400 ng·h/mL"
compound="CN1CCN(c2ccc(-c3ccc4c(c3)C(=O)N(C(C(=O)Nc3nccs3)c3cc(F)ccc3O)C4)cc2)CC1 (centres undefined)" result="1350 ng·h/mL"
compound="O=C(Nc1nccs1)C(c1cc(F)ccc1O)N1Cc2ccc(-c3ccc(N4CCNCC4)cc3)cc2C1=O (centres undefined)" result="2520 ng·h/mL"
compound="CN1CCC(c2ccc(-c3ccc4c(c3)C(=O)N(C(C(=O)Nc3nccs3)c3cccc(F)c3)C4)cc2)CC1 (centres undefined)" result="1000 ng·h/mL"

Where do these numbers come from? They come from ChEMBL document CHEMBL5143652.
